So I've got a bunch of compounds here, and I need their absolute EC50 for viability values.
system: BMSC (primary human bone marrow mesenchymal stromal cells); assay: absolute EC50 for viability; higher = less sensitive

# query: absolute EC50 for viability of entry CC(O)c1cc(C(=O)N[C@@H](C)Cn2ccc(-c3ccc(C#N)c(Cl)c3)n2)n[nH]1 (stereo partly drawn)
> 2.5 µM

Item CO[C@H]1C[C@@H]2CC[C@@H](C)[C@@](O)(O2)C(=O)C(=O)N2CCCC[C@H]2C(=O)O[C@H]([C@H](C)C[C@@H]2CC[C@@H](OP(C)(C)=O)[C@H](OC)C2)CC(=O)[C@H](C)/C=C(\C)[C@@H](O)[C@@H](OC)C(=O)[C@H](C)C[C@H](C)/C=C/C=C/C=C/1C has what recorded absolute EC50 for viability?
> 0.1 µM

Which absolute EC50 for viability reading was recorded for the compound CC(=O)O[C@@]12CO[C@@H]1C[C@H](O)[C@@]1(C)C(=O)[C@H](O)C3=C(C)[C@@H](OC(=O)[C@H](O)[C@@H](NC(=O)OC(C)(C)C)c4ccccc4)C[C@@](O)([C@@H](OC(=O)c4ccccc4)[C@H]21)C3(C)C ?
> 1 µM

I have this compound here, Cc1ccc(C(=O)Nc2ccc(CN3CCN(C)CC3)c(C(F)(F)F)c2)cc1C#Cc1cnc2cccnn12 , and I need its recorded absolute EC50 for viability.
> 1 µM

Fill in: absolute EC50 for viability of Cn1cc(C2=C(c3cn(C4CCN(Cc5ccccn5)CC4)c4ccccc34)C(=O)NC2=O)c2ccccc21 is ___
> 10 µM

Look up absolute EC50 for viability: COc1cc(Nc2ncc(F)c(Nc3ccc4c(n3)N(COP(=O)(O)O)C(=O)C(C)(C)O4)n2)cc(OC)c1OC
> 2.5 µM

Report absolute EC50 for viability for O=c1[nH]c(=O)n([C@H]2C[C@H](O)[C@@H](CO)O2)cc1C(F)(F)F please.
> 10 µM

Tell me the measured absolute EC50 for viability of C=CC(=O)Nc1cccc(Nc2nc(Nc3ccc(N4CCN(C(C)=O)CC4)cc3OC)ncc2C(F)(F)F)c1 , please.
2.86 µM

Returns the measured absolute EC50 for viability for the input compound. Input: Cc1sc2c(c1C)C(c1ccc(Cl)cc1)=N[C@@H](CC(=O)Nc1ccc(O)cc1)c1nnc(C)n1-2
> 10 µM

Entry COc1ccc2[nH]cc(/C=C3\C(=O)Nc4ccc(NC(=O)CCN5CCCCC5)cc43)c2c1 : reported absolute EC50 for viability = ?
7.38 µM

Query (compound): CCS(=O)(=O)Nc1ccc(Oc2ccc(F)cc2F)c(-c2cn(C)c(=O)c3[nH]ccc23)c1 ; field requested: absolute EC50 for viability
2.71 µM

Which absolute EC50 for viability reading was recorded for the compound CCC(C)(C)C(=O)O[C@H]1C[C@@H](C)C=C2C=C[C@H](C)[C@H](CC[C@@H]3C[C@@H](O)CC(=O)O3)[C@H]21 ?
> 10 µM

Requested field: absolute EC50 for viability. Item: CC(C)[C@@H](CS(=O)(=O)C(C)C)N1C(=O)[C@@](C)(CC(=O)O)C[C@H](c2cccc(Cl)c2)[C@H]1c1ccc(Cl)cc1
0.185 µM

====

test system: BMSC (primary human bone marrow mesenchymal stromal cells); test: absolute EC50 for viability; higher = less sensitive
Provide the reported absolute EC50 for viability of each item.

Requested read-out: absolute EC50 for viability. Entry: COc1ccc(Cn2ccc3ccc(C(=O)NO)cc32)cc1
9.93 µM

Return reported absolute EC50 for viability; argument: CC/C(=C(\c1ccc(O)cc1)c1ccc(OCCN(C)C)cc1)c1ccccc1 [4-hydroxytamoxifen]
9.93 µM

Endpoint output: absolute EC50 for viability of CCS(=O)(=O)N1CC(CC#N)(n2cc(-c3ncnc4[nH]ccc34)cn2)C1 . Value?
> 2.5 µM

Param item = CCN(c1cc(-c2ccc(CN3CCOCC3)cc2)cc(C(=O)NCc2c(C)cc(C)[nH]c2=O)c1C)C1CCOCC1 ; retrieve measured absolute EC50 for viability.
> 10 µM

Field request: absolute EC50 for viability | item: O=C(NC1CCNCC1)c1n[nH]cc1NC(=O)c1c(Cl)cccc1Cl
0.462 µM

Can you share its absolute EC50 for viability? I mean this compound: C=CC(=O)N1CCC[C@@H](n2nc(-c3ccc(Oc4ccccc4)cc3)c3c(N)ncnc32)C1
> 1 µM

absolute EC50 for viability lookup needed for CC[C@@H]1C(=O)N(C)c2cnc(Nc3ccc(C(=O)NC4CCN(C)CC4)cc3OC)nc2N1C1CCCC1 , thanks.
> 1 µM

I have this compound here, Cc1cnc(-c2ccccc2C(C)C)nc1NCc1ccc(-n2ccnn2)cc1 , and I need its recorded absolute EC50 for viability.
> 10 µM

I have this compound here, CN(C)c1cc2c(cc1Sc1nc3c(N)nccc3n1CCNCC(C)(C)C)OCO2 , and I need its recorded absolute EC50 for viability.
1.15 µM

Fill in: absolute EC50 for viability of Cc1cc(Nc2cc(CN3CCOCC3)c3nc(C)c(Cc4ccc(Cl)cc4F)n3n2)n[nH]1 is ___
2.49 µM

Given CC(C)C[C@H](NC(=O)[C@H](Cc1ccccc1)NC(=O)c1cnccn1)B(O)O , state its recorded absolute EC50 for viability.
0.0507 µM

Please look up its absolute EC50 for viability: COc1cc2nccc(Oc3ccc(NC(=O)Nc4cc(C)on4)c(Cl)c3)c2cc1OC
> 10 µM

Fill blank: measured absolute EC50 for viability of the compound CCOC(=O)C1=CCCC[C@H]1S(=O)(=O)Nc1ccc(F)cc1Cl is ____.
9.93 µM

Quick one: absolute EC50 for viability of NC(=O)c1cccc(-c2cccc(OC(=O)NC3CCCCC3)c2)c1 ?
> 1 µM

What does the data say about its absolute EC50 for viability? Entry: O=C(O)C(=O)O.[NH-][C@@H]1CCCC[C@H]1[NH-].[Pt+2]
> 100 µM

Requested read-out: absolute EC50 for viability. Entry: CCCCCOC(=O)Nc1nc(=O)n([C@@H]2O[C@H](C)[C@@H](O)[C@H]2O)cc1F
> 10 µM

Please look up its absolute EC50 for viability: CN(C)C1CCN(C(=O)c2ccc(NC(=O)Nc3ccc(-c4nc(N5CCOCC5)nc(N5CCOCC5)n4)cc3)cc2)CC1
0.0437 µM

====

Please go through the items and note down their absolute EC50 for viability.
tested on: BMSC (primary human bone marrow mesenchymal stromal cells); assay: absolute EC50 for viability; higher = less sensitive
Express it in nM; write the number only.

Give the measured absolute EC50 for viability of CCN(CC)CCCC(C)Nc1ccnc2cc(Cl)ccc12 (centres undefined) .
12800

Fill blank: measured absolute EC50 for viability of the molecule CCNC(=O)c1noc(-c2cc(C(C)C)c(O)cc2O)c1-c1ccc(CN2CCOCC2)cc1 is ____.
15.2

Query: absolute EC50 for viability; subject: CC(C)C[C@H](NC(=O)[C@H](CCc1ccccc1)NC(=O)CN1CCOCC1)C(=O)N[C@@H](Cc1ccccc1)C(=O)N[C@@H](CC(C)C)C(=O)[C@@]1(C)CO1
18.7

====

system: BMSC (primary human bone marrow mesenchymal stromal cells); assay: absolute EC50 for viability; higher = less sensitive
Assignment: determine reported absolute EC50 for viability for the given compounds.

I would be grateful if you could share the reported absolute EC50 for viability for CC(=O)Nc1ccc(C(=O)Nc2ccccc2N)cc1 [Tacedinaline] .
> 1 µM

Please report the recorded absolute EC50 for viability for CNC(=O)c1cccc(-c2ccc3c(N4CCOC[C@@H]4C)nc(N4CCOC[C@@H]4C)nc3n2)c1 [Vistusertib] .
0.488 µM

I would be grateful if you could share the reported absolute EC50 for viability for O=C(O)CC1CC(c2ccccc2)=NO1 (stereo unspecified) [VGX-1027] .
> 10 µM

GET /values?readout=absolute EC50 for viability&item= CCN(CC)CCN(Cc1ccc(-c2ccc(C(F)(F)F)cc2)cc1)C(=O)Cn1c(SCc2ccc(F)cc2)nc(=O)c2c1CCC2 [Darapladib]
> 1 µM

Would you mind telling me what absolute EC50 for viability value was observed for CN(C)CCCOc1ccc(-c2ccc3ncc4c(c3c2)n(C2CCOCC2)c(=O)n4C)cn1 [AZD0156] ?
> 1 µM

Sample CC[C@@](C)(Nc1ccnc(-c2c[nH]c3ncccc23)n1)C(=O)NCC(F)(F)F [Decernotinib] — what was its absolute EC50 for viability?
> 10 µM

Look at this compound and give its reported absolute EC50 for viability. Cn1cc(CNCC2CCN(c3ncc(C(=O)NO)cn3)CC2)c2ccccc21 [Quisinostat]
0.181 µM

Form field: reported absolute EC50 for viability of C[C@]12CC[C@@H]3c4ccc(O)cc4C[C@@H](CCCCCCCCC[S+]([O-])CCCC(F)(F)C(F)(F)F)[C@H]3[C@@H]1CC[C@@H]2O (stereo partly specified) [Fulvestrant]
> 1 µM

Give its absolute EC50 for viability value. Item: CC1(C)CCC(c2ccc(Cl)cc2)=C(CN2CCN(c3ccc(C(=O)NS(=O)(=O)c4ccc(N[C@H](CCN5CCOCC5)CSc5ccccc5)c(S(=O)(=O)C(F)(F)F)c4)cc3)CC2)C1 [Navitoclax]
> 10 µM

Quick check: absolute EC50 for viability of Nc1ncn([C@@H]2O[C@H](CO)[C@@H](O)[C@H]2O)c(=O)n1 [Azacitidine] ?
> 10 µM

What does the data say about its absolute EC50 for viability? Entry: C[C@@H]1CCN(C(=O)CC#N)C[C@@H]1N(C)c1ncnc2[nH]ccc12 [Tofacitinib]
> 5 µM

Which measured absolute EC50 for viability value corresponds to O=C(Nc1ccncc1)C(=O)c1cn(Cc2ccc(Cl)cc2)c2ccccc12 [Indibulin] ?
> 10 µM

Query: absolute EC50 for viability; subject: CS(=O)(=O)c1ccc(-c2cnc(N)c(C(=O)Nc3ccccc3)n2)cc1 [VE-821]
> 10 µM

Please look up its absolute EC50 for viability: Cc1ccccc1CN1C(=O)C2=C(CCN(Cc3ccccc3)C2)N2CCN=C12 [TIC10]
> 25 µM

Quick check: absolute EC50 for viability of O=C(c1ccc(OCCN2CCCCC2)cc1)c1c(-c2ccc(O)cc2)sc2cc(O)ccc12 [Raloxifene] ?
7.96 µM

# query: absolute EC50 for viability of entry C#Cc1cccc(Nc2ncnc3cc(OCCOC)c(OCCOC)cc23)c1 [Erlotinib]
> 10 µM

Ref: the supplement of paper PMC9103864
